# system_under_test: T1, monkey CD19 on HEK293T-monkey CD19 cells (monkey)
# T1 construct: whole, on cells
# test_name: FACS on HEK293T-monkey CD19 cells
measurement_kind: EC50 (nM)
Answer format: numeric, nM implied, no suffix.

Query: Look up EC50: F4.48.12 (antibody, human IgG1, V domains shown, human-murine chimeric antibody, human IgG1) VH: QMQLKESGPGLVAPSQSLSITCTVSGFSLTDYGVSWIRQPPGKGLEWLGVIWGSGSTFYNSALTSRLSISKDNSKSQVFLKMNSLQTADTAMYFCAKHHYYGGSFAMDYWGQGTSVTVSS VL: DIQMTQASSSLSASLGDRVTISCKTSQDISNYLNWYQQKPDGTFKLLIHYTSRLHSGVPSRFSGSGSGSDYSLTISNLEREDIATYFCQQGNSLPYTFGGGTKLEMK
Result: 184

Query: Look up EC50: F3.124.7 (antibody, human IgG1, V domains shown, human-murine chimeric antibody, human IgG1) VH: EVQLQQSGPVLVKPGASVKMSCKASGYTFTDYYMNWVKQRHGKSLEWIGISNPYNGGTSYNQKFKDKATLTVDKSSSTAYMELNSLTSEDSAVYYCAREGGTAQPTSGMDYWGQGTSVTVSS VL: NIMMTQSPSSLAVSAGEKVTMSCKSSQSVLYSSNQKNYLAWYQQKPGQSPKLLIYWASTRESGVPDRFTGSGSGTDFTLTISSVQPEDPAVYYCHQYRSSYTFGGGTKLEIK
Result: 1.27

Query: Look up EC50: F3.81.2 (antibody, human IgG1, V domains shown, human-murine chimeric antibody, human IgG1) VH: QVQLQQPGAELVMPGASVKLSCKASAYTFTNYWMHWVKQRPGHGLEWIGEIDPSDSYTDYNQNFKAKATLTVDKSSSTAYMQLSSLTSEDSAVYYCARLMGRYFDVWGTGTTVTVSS VL: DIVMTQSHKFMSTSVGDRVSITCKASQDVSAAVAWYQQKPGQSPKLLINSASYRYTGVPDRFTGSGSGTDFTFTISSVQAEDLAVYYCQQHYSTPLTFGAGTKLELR
Result: 3.44

Reference for the values: patent US20250042994A1
